Tested on: C. neoformans ATCC 32264
procedure summary: Antifungal broth microdilution (CLSI M27-A3), growth inhibition
Format: cell-based, Cryptococcus neoformans
assay context: 125 μg∙mL^−1, 48 h
Label 1.0 when Inhibition percentage against C. neoformans ATCC 32264 >= 20%; otherwise 0.0.

Some solved entries appear below for comparison.
{"columns": ["molecule", "assigned label"],
 "data": [
  ["CC(C)c1cc2c3c(c1OC(=O)CCc1cn(Cc4ccccc4)nn1)OC(=O)[C@@]31CCCC(C)(C)[C@@H]1CC2", 0.0],
  ["CC(C)c1cc2c(c(OC(=O)CCCc3cn(Cc4ccccc4)nn3)c1OC(=O)CCCc1cn(Cc3ccccc3)nn1)C13CCCC(C)(C)C1CC2OC3=O (stereo not drawn)", 0.0],
  ["CC(C)c1cc2c(c(OC(=O)CCCc3cn(Cc4ccc([N+](=O)[O-])cc4)nn3)c1OC(=O)CCCc1cn(Cc3ccc([N+](=O)[O-])cc3)nn1)C13CCCC(C)(C)C1CC2OC3=O (stereo not drawn)", 1.0],
  ["COC(=O)C12CCCC(C)(C)C1CCc1cc(C(C)C)c(OC(=O)CCc3cn(CSc4ccccc4)nn3)c(OC(=O)CCc3cn(CSc4ccccc4)nn3)c12 (stereo not drawn)", 1.0],
  ["CC(C)c1cc2c(c(OC(=O)CCCc3cn(CSc4ccccc4)nn3)c1OC(=O)CCCc1cn(CSc3ccccc3)nn1)C13CCCC(C)(C)C1CC2OC3=O (stereo not drawn)", 0.0],
  ["CC(C)c1cc2c3c(c1OC(=O)CCCc1cn(Cc4ccc([N+](=O)[O-])cc4)nn1)OC(=O)C31CCCC(C)(C)C1CC2 (stereo not drawn)", 0.0],
  ["COC(=O)C12CCCC(C)(C)C1CCc1cc(C(C)C)c(OC(=O)CCCc3cn(Cc4ccccc4)nn3)c(OC(=O)CCCc3cn(Cc4ccccc4)nn3)c12 (stereo not drawn)", 1.0],
  ["COC(=O)C12CCCC(C)(C)C1CCc1cc(C(C)C)c(OC(=O)CCc3cn(Cc4ccc(Br)cc4)nn3)c(OC(=O)CCc3cn(Cc4ccc(Br)cc4)nn3)c12 (stereo not drawn)", 0.0]
]}

# bool: Inhibition percentage against C. neoformans ATCC 32264 of CC(C)c1cc2c(c(OC(=O)CCc3cn(Cc4ccc([N+](=O)[O-])cc4)nn3)c1OC(=O)CCc1cn(Cc3ccc([N+](=O)[O-])cc3)nn1)C13CCCC(C)(C)C1CC2OC3=O (stereo not drawn) >= 20%
1.0
